# Assay overview: physchem
# Conditions: octan-1-ol/water, pH 7.4, LogD7.4
Categorized via logD: bottom end (below 2), midrange (2 to below 3), top end (3 or more)

Illustrative cases are given below, each with its answer.
[[record]]
molecule = "N#Cc1cccc(-c2cccc(C(=O)O)c2)c1"
label = "bottom end"

[[record]]
molecule = "Nc1n[nH]c2c(Cl)cccc12"
label = "bottom end"

[[record]]
molecule = "COc1cc(Nc2nccc(Oc3cnc4ccccc4c3)n2)cc(OC)c1OC"
label = "top end"


Input line: Class? Entry: O=[N+]([O-])c1ccc(C=NO)o1
Output line: bottom end

Input line: Class? Entry: CC[C@H](NC(=O)c1c([S+](C)[O-])c(-c2ccccc2)nc2ccccc12)c1cccnc1 (stereo partly specified)
Output line: midrange

Input line: Class? Entry: Cc1[nH]c2nc(NCc3ccc(Cl)cc3)nn2c(=O)c1Cc1ccccc1
Output line: top end

Input line: Class? Entry: O=c1ccc(=O)c2ccccc2[nH]1
Output line: bottom end

Input line: Class? Entry: CN(C)CCCN1c2ccccc2CCc2ccc(Cl)cc21
Output line: top end

Input line: Class? Entry: O=C(Nc1cc(-c2ccncc2)c[nH]c1=O)[C@H](Cc1ccccc1)NC1(c2ccccn2)CC1
Output line: top end

Input line: Class? Entry: COC(=O)C1=C(C)NC(C)=C(C(=O)OC(C)C)[C@@H]1c1cccc2nonc12 [(R)-ISRADIPINE]
Output line: top end

Input line: Class? Entry: COc1cc2nc(N3CCN(C(=O)C4CCCO4)CC3)nc(N)c2cc1OC (stereo unspecified)
Output line: bottom end

Input line: Class? Entry: Cc1ccc(S(=O)(=O)Nc2c(C(=O)NC3CCCCC3C)cnn2-c2ccccc2)cc1 (stereo unspecified)
Output line: bottom end

Input line: Class? Entry: O=c1cc(N2CCOCC2)nc2n(Cc3cccc4ccccc34)ccn12
Output line: top end

Input line: Class? Entry: Nc1ncnc2sccc12
Output line: bottom end

Input line: Class? Entry: Cn1c(CN2CCC(c3ccccc3)CC2)nc2ccccc21
Output line: top end

Input line: Class? Entry: CC(C)(C)C(=O)NCc1ccc(NC(=O)N2CCCC(O)(c3ccc(Cl)c(Cl)c3)C2)cc1 (stereo unspecified)
Output line: top end

Input line: Class? Entry: CN[C@@H](C)C(=O)N[C@H](C(=O)N[C@H]1CCCCN(Cc2ccccc2)C1)C1CCCCC1
Output line: midrange

Input line: Class? Entry: Cc1c[nH]c(-c2cnc(NCCNc3ccc(C#N)cn3)nc2-c2ccc(Cl)cc2Cl)n1
Output line: top end

Input line: Class? Entry: NS(=O)(=O)c1cc2c(cc1Cl)NC(C1CC3C=CC1C3)NS2(=O)=O (stereo unspecified) [CYCLOTHIAZIDE]
Output line: midrange
